system: HS 578T breast; test: NCI-60 one-dose screen, 48 h; details: 10 µM unless noted
Compounds without any hit were thinned out: in the full panel of roughly 83,000, 20% have a hit. Calls of active or inactive are those of the source. Rule for the calls: active = growth percent below 10; inactive = the rest.
Your reply should match one of these outcome classes. t (active), f (inactive)

These recorded examples may help you get a feel for the data.
1. COc1ccccc1-n1cnc(N)c1C(=O)c1cc(OC)c(OC)c(OC)c1	t
2. N#C/C(=C\c1ccc(-c2ccc(Cl)cc2)o1)c1nc(-c2ccco2)cs1	f
3. COC(=O)[C@]12CC[C@@H](C)[C@H](C)[C@@H]1C1=CC[C@@H]3[C@@]4(C)C[C@@H](O)OC[C@](C)(C=O)C4C(=O)C[C@@]3(C)[C@]1(C)CC2 (stereo partly drawn)	f

# input What did this assay record as the result for CC1(C)NCCC[C@]2(C)[C@H]3CC[C@@H]4[C@H]5[C@H](C(=O)/C=C/c6ccccn6)CC[C@]5(CO)CC[C@@]4(C)[C@]3(C)CC[C@@H]12 ?
# output f

# input Next: O=[N+]([O-])c1cccc(/C=N\Nc2ccccc2)c1
# output f

# input Next: Nc1nc(N)c2nc3c(nc2n1)CCCCCCCCCC3
# output f

# input Next: Cc1cc(N2CCN(C)CC2)nc(N(CCNc2ccnc3cc(Cl)ccc23)Cc2ccco2)n1
# output f

# input Next: N#Cc1c(-c2ccco2)nc2c(c(-c3ccccc3)nn2-c2ccccc2)c1-c1ccc(O)cc1
# output f

# input Next: O=C(/C=C/c1cccc2ccccc12)Nc1ncc(Cc2ccccc2)s1
# output f

# input Next: C#CCN=C[C@]12CC[C@@H](C(=C)C)[C@@H]1[C@H]1CC[C@@H]3[C@@]4(C)CCC(=O)C(C)(C)[C@@H]4CC[C@@]3(C)[C@]1(C)CC2
# output f

# input Next: COc1ccc(-c2n/c(=C\c3c(O)[nH]c4ccc(OC)cc34)cc3c2=Nc2ccccc2-3)cc1
# output f
